- MEASURED ON: HLA-B*15:17
- ASSAY SUMMARY: IEDB peptide-MHC binding, purified MHC/competitive/fluorescence; filed as Kd, often an IC50 or EC50 that approximates it; bounds were set here for any values at or beyond the usual limits of such assays
- EXPERIMENTAL CONDITIONS: source organism: Vaccinia virus Copenhagen
pKd: −log10 of the molar value.
MEASURED PARAMETER: pKd

| SEQUENCE RECORD | NUMERIC READOUT |
| --- | --- |
| KYFDDVTAF | 5.36 |

---

- MEASURED ON: HLA-B*51:01
- ASSAY SUMMARY: IEDB peptide-MHC binding, purified MHC/competitive/fluorescence; filed as Kd, often an IC50 or EC50 that approximates it; bounds were set here for any values at or beyond the usual limits of such assays
- EXPERIMENTAL CONDITIONS: source organism: Vibrio parahaemolyticus RIMD 2210633
pKd: −log10 of the molar value.
MEASURED PARAMETER: pKd

| SEQUENCE RECORD | RESULT |
| --- | --- |
| SMNYPNSYK | ≤ 4.70 |

---

- MEASURED ON: HLA-A*03:01
- ASSAY SUMMARY: IEDB peptide-MHC binding, purified MHC/competitive/radioactivity; filed as Kd, often an IC50 or EC50 that approximates it; bounds were set here for any values at or beyond the usual limits of such assays
- EXPERIMENTAL CONDITIONS: source organism: Vaccinia virus WR
MEASURED PARAMETER: Kd

| SEQUENCE RECORD | MEASURED PARAMETER | RESULT |
| --- | --- | --- |
| LFTSTNDKIK | Kd | ≥ 24.9 µM |
| YVPSAEDNY | Kd | ≥ 78 µM |
| LLACTDPSER | Kd | ≥ 70.1 µM |

---

- MEASURED ON: HLA-A*26:01
- ASSAY SUMMARY: IEDB peptide-MHC binding, purified MHC/competitive/radioactivity; filed as Kd, often an IC50 or EC50 that approximates it; bounds were set here for any values at or beyond the usual limits of such assays
- EXPERIMENTAL CONDITIONS: source organism: SARS coronavirus Tor2
Reported values of Kd for individual entries

| SEQUENCE RECORD | Kd |
| --- | --- |
| CGSVGFNIDY | ≥ 20.7 µM |
| VFNGTSWFI | ≥ 77.9 µM |
| LDEWSVATFY | ≥ 21.4 µM |
| KYKYFSGAL | ≥ 75.5 µM |
| LCANEYTGNY | ≥ 29.9 µM |
| EWSVATFYL | ≥ 45.4 µM |

---

- MEASURED ON: HLA-A*02:03
- ASSAY SUMMARY: IEDB peptide-MHC binding, purified MHC/competitive/radioactivity; filed as Kd, often an IC50 or EC50 that approximates it; bounds were set here for any values at or beyond the usual limits of such assays
- EXPERIMENTAL CONDITIONS: source organism: Vaccinia virus WR
pKd: −log10 of the molar value.
Label scheme for pKd: lower than 7 is no, 7 and above is yes.

| SEQUENCE RECORD | MEASURED ON | LABEL |
| --- | --- | --- |
| WIKDIMTST | HLA-A*02:03 | yes |
| KLFKRERDA | HLA-A*02:03 | no |
| FTFGDTALYV | HLA-A*02:03 | yes |
| GVMYAFTTPL | HLA-A*02:03 | yes |
| FLNISWFYI | HLA-A*02:03 | yes |
| IVQLPKRGV | HLA-A*02:03 | no |
| GLLDSIKMI | HLA-A*02:03 | yes |
| KLPTWLGAA | HLA-A*02:03 | yes |
| KIIAVFDSKL | HLA-A*02:03 | yes |
| NVISKIYTLI | HLA-A*02:03 | yes |
| WIKNLETYT | HLA-A*02:03 | no |
| GMYYPTNDI | HLA-A*02:03 | yes |
| PAMSTYSDI | HLA-A*02:03 | no |
| STFNMWREI | HLA-A*02:03 | no |

---

- MEASURED ON: HLA-A*03:01
- ASSAY SUMMARY: IEDB peptide-MHC binding, purified MHC/competitive/radioactivity; filed as Kd, often an IC50 or EC50 that approximates it; bounds were set here for any values at or beyond the usual limits of such assays
- EXPERIMENTAL CONDITIONS: source organism: Vaccinia virus WR
Readings of log10 of Kd for the listed sequences
MEASURED PARAMETER: log10 of Kd (log10 of the value in nM)

| SEQUENCE RECORD | log10 of Kd |
| --- | --- |
| YLGVNNLPY | 3.11 |
| LLSCIRNASK | 1.82 |
| KSSSIDVDK | 4.15 |
| NISFKSINK | 1.17 |
| QLEDSEYLFR | 2.58 |
| SVQLSNNKY | 3.43 |

---

- MEASURED ON: HLA-A*29:02
- ASSAY SUMMARY: IEDB peptide-MHC binding, purified MHC/competitive/radioactivity; filed as Kd, often an IC50 or EC50 that approximates it; bounds were set here for any values at or beyond the usual limits of such assays
- EXPERIMENTAL CONDITIONS: source organism: SARS coronavirus Tor2
pKd: −log10 of the molar value.

| SEQUENCE RECORD | pKd |
| --- | --- |
| KYKYFSGAL | ≤ 4.60 |
| FFFVYENAF | ≤ 4.62 |
| VFNGTSWFI | ≤ 4.34 |
| EWSVATFYL | ≤ 4.23 |
| FYTTTGIGY | ≤ 4.34 |
| VFHLYLQYI | ≤ 4.15 |

---

Property: Kd; scope: individual sequences
- MEASURED ON: HLA-B*44:02
- ASSAY SUMMARY: IEDB peptide-MHC binding, purified MHC/competitive/radioactivity; filed as Kd, often an IC50 or EC50 that approximates it; bounds were set here for any values at or beyond the usual limits of such assays
- EXPERIMENTAL CONDITIONS: source organism: Dengue virus 4 Philippines/H241/1956
MEASURED PARAMETER: Kd

| SEQUENCE RECORD | RESULT |
| --- | --- |
| YDQENPYRTW | 0.156 µM |
| KEMAETQHG | 0.143 µM |
| GESSSNPTI | 0.0752 µM |

---

- MEASURED ON: HLA-A*68:01
- ASSAY SUMMARY: IEDB peptide-MHC binding, purified MHC/competitive/radioactivity; filed as Kd, often an IC50 or EC50 that approximates it; bounds were set here for any values at or beyond the usual limits of such assays
- EXPERIMENTAL CONDITIONS: source organism: Vaccinia virus WR
pKd: −log10 of the molar value.

| SEQUENCE RECORD | MEASURED ON | BOUND TYPE | pKd |
| --- | --- | --- | --- |
| YLGVNNLPY | HLA-A*68:01 | ≤ | 4.28 |
| ELGELIGVNY | HLA-A*68:01 | ≤ | 4.42 |
| YVTLNASQY | HLA-A*68:01 | = | 7.97 |
| LFYPSMFTLR | HLA-A*68:01 | = | 8.58 |
| AQYKCVTIK | HLA-A*68:01 | = | 5.66 |
| KSISKSNAK | HLA-A*68:01 | = | 7.00 |
| LLMHLVSLYK | HLA-A*68:01 | = | 7.76 |
| YVPSAEDNY | HLA-A*68:01 | ≤ | 4.44 |
| GAVVKSDNK | HLA-A*68:01 | = | 4.90 |
| LFTSTNDKIK | HLA-A*68:01 | = | 6.27 |
| IIGPMFSGK | HLA-A*68:01 | = | 7.00 |
| LLACTDPSER | HLA-A*68:01 | = | 6.07 |
| AMSFDGFIR | HLA-A*68:01 | = | 6.05 |
| RVYEALYYV | HLA-A*68:01 | ≤ | 4.11 |
| VTIKYSNDNR | HLA-A*68:01 | = | 8.63 |
| LLSCIRNASK | HLA-A*68:01 | = | 6.71 |
| ISGIGTFLHY | HLA-A*68:01 | = | 4.71 |
| ESLLKETIQK | HLA-A*68:01 | = | 6.48 |
| LFMEMFFDY | HLA-A*68:01 | ≤ | 4.15 |

---

Recorded IC50 by entry
- MEASURED ON: HLA-A*11:01
- ASSAY SUMMARY: IEDB peptide-MHC binding, purified MHC/competitive/fluorescence; bounds were set here for any values at or beyond the usual limits of such assays
- EXPERIMENTAL CONDITIONS: source organism: Zaire ebolavirus

| SEQUENCE RECORD | MEASURED ON | IC50 |
| --- | --- | --- |
| ISFQQTNAM | HLA-A*11:01 | ≥ 125 µM |
| DQEKKILMN | HLA-A*11:01 | ≥ 193 µM |
| EYPPWLTEK | HLA-A*11:01 | ≥ 123 µM |

Taken from the Immune Epitope Database (IEDB).
